EXPERIMENTAL_SYSTEM: Coagulation factor X (Homo sapiens, UniProt P00742)
Sequence (P00742 41-179 limits assumed): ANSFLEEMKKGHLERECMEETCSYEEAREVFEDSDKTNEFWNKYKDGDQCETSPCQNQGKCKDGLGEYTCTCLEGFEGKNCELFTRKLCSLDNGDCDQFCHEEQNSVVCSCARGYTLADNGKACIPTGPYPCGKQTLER
Sequence (P00742 235-488 limits assumed): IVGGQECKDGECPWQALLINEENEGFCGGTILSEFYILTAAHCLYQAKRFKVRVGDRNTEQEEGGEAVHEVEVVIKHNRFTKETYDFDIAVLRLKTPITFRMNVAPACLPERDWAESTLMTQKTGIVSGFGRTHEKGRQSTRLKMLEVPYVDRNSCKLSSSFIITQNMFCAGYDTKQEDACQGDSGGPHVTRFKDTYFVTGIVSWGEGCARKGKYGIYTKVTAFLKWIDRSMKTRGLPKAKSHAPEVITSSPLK
EXPERIMENT_DESCRIPTION: In vitro binding affinity towards factor Xa
TEST_READOUT: k on (M⁻¹ s⁻¹)

{"columns": ["MOLECULE", "UNIT_DESCRIPTOR", "k on"],
 "data": [
  ["N=C(N)NCCC[C@@H](NS(=O)(=O)Cc1ccccc1)C(=O)NCC(=O)N[C@H](CCCNC(=N)N)C(=O)c1nccs1", "M⁻¹ s⁻¹", "6.5e+06"],
  ["N=C(N)NCCCC(NC(=O)CN1CCN(S(=O)(=O)c2cccc3cccnc23)CC1=O)C(=O)c1nccs1 (stereo not given)", "M⁻¹ s⁻¹", "2.9e+06"]
]}

(I) N=C(N)NCCC[C@@H](NC(=O)CN1CCN(S(=O)(=O)c2ccc(Cl)cc2)CC1=O)C(=O)c1nccs1
(II) N=C(N)NCCCC(NC(=O)CN1CCN(S(=O)(=O)c2ccc3ccccc3c2)CC1=O)C(=O)c1nccs1 (stereo not given)
(III) N=C(N)NCCC[C@@H](NC(=O)CN1CCN(S(=O)(=O)Cc2ccccc2)CC1=O)C(=O)c1nccs1
stdin: List these items ordered by k on, big to small. Please respond by ranking the labels in the order requested.
stdout: II, I, III

* * *

EXPERIMENT_DESCRIPTION: In vivo half life period after intravenous administration in rat
Assay type: ADME, organism-based
TEST_READOUT: half-life (min)

Some solved entries appear below for comparison.
{"columns": ["COMPOUND", "UNIT_DESCRIPTOR", "OBSERVED_MEASUREMENT"],
 "data": [
  ["N=C(N)NCCCC(NC(=O)CN1CCN(S(=O)(=O)c2cccc3cccnc23)CC1=O)C(=O)c1nccs1 (stereo not given)", "min", 29],
  ["N=C(N)NCCC[C@@H](NS(=O)(=O)Cc1ccccc1)C(=O)NCC(=O)N[C@H](CCCNC(=N)N)C(=O)c1nccs1", "min", 24]
]}

(P) N=C(N)NCCC[C@@H](NC(=O)CN1CCN(S(=O)(=O)c2ccc(Cl)cc2)CC1=O)C(=O)c1nccs1
(Q) N=C(N)NCCCC(NC(=O)CN1CCN(S(=O)(=O)c2ccc3ccccc3c2)CC1=O)C(=O)c1nccs1 (stereo not given)
stdin: Which entry has a larger number for half-life, P or Q ? State your choice using its label.
stdout: P
(P: 22 min, Q: 15 min)

* * *

EXPERIMENTAL_SYSTEM: Coagulation factor X (Homo sapiens, UniProt P00742)
EXPERIMENT_DESCRIPTION: In vitro binding affinity towards factor Xa
TEST_READOUT: k off (s⁻¹)

Some solved entries appear below for comparison.
{"columns": ["COMPOUND", "EXPERIMENTAL_SYSTEM", "k off / s⁻¹"],
 "data": [
  ["N=C(N)NCCC[C@@H](NC(=O)CN1CCN(S(=O)(=O)Cc2ccccc2)CC1=O)C(=O)c1nccs1", "Coagulation factor X (Homo sapiens, UniProt P00742)", 0.013],
  ["N=C(N)NCCCC(NC(=O)CN1CCN(S(=O)(=O)c2cccc3cccnc23)CC1=O)C(=O)c1nccs1 (centres undefined)", "Coagulation factor X (Homo sapiens, UniProt P00742)", 0.107]
]}

(a) N=C(N)NCCCC(NC(=O)CN1CCN(S(=O)(=O)c2ccc3ccccc3c2)CC1=O)C(=O)c1nccs1 (centres undefined)
(b) N=C(N)NCCC[C@@H](NC(=O)CN1CCN(S(=O)(=O)c2ccc(Cl)cc2)CC1=O)C(=O)c1nccs1
stdin: Quick one: lower k off, a or b ? State your choice using its label.
stdout: a

* * *

EXPERIMENTAL_SYSTEM: Coagulation factor X (Homo sapiens, UniProt P00742)
TEST_READOUT: IC50 (nM)

Some solved entries appear below for comparison.
{"columns": ["COMPOUND", "OBSERVED_MEASUREMENT"],
 "data": [
  ["N#Cc1ccc(S(=O)(=O)N2CCN(CC(=O)NC(CCCNC(=N)N)C(=O)c3nccs3)C(=O)C2)cc1 (centres undefined)", 32],
  ["N=C(N)NCCC[C@@H](NC(=O)CN1CCC[C@H](NS(=O)(=O)Cc2ccccc2)C1=O)C(=O)c1nccs1", 29],
  ["N=C(N)NCCC[C@@H](NC(=O)CN1CCN(C(=O)c2ccc(Cl)cc2)CC1=O)C(=O)c1nccs1", 118],
  ["N=C(N)NCCC[C@@H](NC(=O)CN1CCN(C(=O)c2ccccc2)CC1=O)C(=O)c1nccs1", 320],
  ["N=C(N)NCCC[C@@H](NC(=O)CN1CCNCC1=O)C(=O)c1nccs1", 2000],
  ["N=C(N)NCCCC(NC(=O)CN1CCN(S(=O)(=O)c2ccc(Cl)c(Cl)c2)CC1=O)C(=O)c1nccs1 (centres undefined)", 1],
  ["N=C(N)NCCC[C@@H](NC(=O)CN1CCN(S(=O)(=O)Cc2ccccc2)CC1=O)C(=O)c1nccs1", 4],
  ["N=C(N)NCCCC(NC(=O)CN1CCN(S(=O)(=O)c2ccc3c(Cl)cccc3c2)CC1=O)C(=O)c1nccs1 (centres undefined)", 0.79],
  ["N=C(N)NCCCC(NC(=O)CN1CCN(S(=O)(=O)c2ccc([N+](=O)[O-])cc2)CC1=O)C(=O)c1nccs1 (centres undefined)", 6],
  ["CC(=O)Nc1nc(C)c(S(=O)(=O)N2CCN(CC(=O)NC(CCCN=C(N)N)C(=O)c3nccs3)C(=O)C2)s1 (centres undefined)", 58]
]}

(A) N=C(N)NCCCC(NC(=O)CN1CCN(S(=O)(=O)c2cccc3cnccc23)CC1=O)C(=O)c1nccs1 (centres undefined)
(B) N=C(N)NCCCC(NC(=O)CN1CCN(S(=O)(=O)c2cccc3c(Cl)cccc23)CC1=O)C(=O)c1nccs1 (centres undefined)
(C) N=C(N)NCCC[C@@H](NC(=O)CN1CCN(Cc2ccccc2)CC1=O)C(=O)c1nccs1
(D) N=C(N)NCCC[C@@H](NC(=O)CN1CCN(S(=O)(=O)Cc2ccccc2)CCC1=O)C(=O)c1nccs1
(E) N=C(N)NCCCC(NC(=O)CN1CCN(S(=O)(=O)c2cccc3nonc23)CC1=O)C(=O)c1nccs1 (centres undefined)
stdin: // ascending sort on recorded IC50 Please respond by ranking the labels in the order requested.
stdout: B, A, E, D, C

* * *

EXPERIMENT_DESCRIPTION: In vitro anticoagulant activity was measured by prothrombin time (PT) assay
Format: functional
TEST_READOUT: 2x PT (µM)
The reply should be a number in µM, with the unit left off.

{"columns": ["COMPOUND", "UNIT_DESCRIPTOR", "2x PT"],
 "data": [
  ["N=C(N)NCCC[C@@H](NS(=O)(=O)Cc1ccccc1)C(=O)NCC(=O)N[C@H](CCCNC(=N)N)C(=O)c1nccs1", "µM", 6.8],
  ["Cc1c(S(=O)(=O)N2CCN(CC(=O)NC(CCCN=C(N)N)C(=O)c3nccs3)C(=O)C2)sc2ccc(Cl)cc12 (centres undefined)", "µM", 14.5],
  ["N=C(N)NCCCC(NC(=O)CN1CCN(S(=O)(=O)c2ccc3c(Cl)cccc3c2)CC1=O)C(=O)c1nccs1 (centres undefined)", "µM", 12.5]
]}

Lab note: next compound to report on.
So, N=C(N)NCCCC(NC(=O)CN1CCN(S(=O)(=O)c2cccc3cccnc23)CC1=O)C(=O)c1nccs1 (centres undefined) ? Its 2x PT was 10.4

* * *

EXPERIMENTAL_SYSTEM: Prothrombin (Homo sapiens, UniProt P00734)
TEST_READOUT: IC50 (nM)

Some solved entries appear below for comparison.
{"columns": ["MOLECULE", "IC50 / nM"],
 "data": [
  ["N=C(N)NCCCC(NC(=O)CN1CCN(S(=O)(=O)c2ccc3c(Cl)cccc3c2)CC1=O)C(=O)c1nccs1 (stereo not drawn)", 2000],
  ["N=C(N)NCCCC(NC(=O)CN1CCN(S(=O)(=O)c2ccc(C(=O)O)cc2)CC1=O)C(=O)c1nccs1 (stereo not drawn)", 17000],
  ["N=C(N)NCCC[C@@H](NC(=O)CN1CCCC(CCC2CCNCC2)C1=O)C(=O)c1nccs1 (stereo partly drawn)", 12000]
]}

(P) N=C(N)NCCC[C@@H](NC(=O)CN1CCN(S(=O)(=O)c2ccccc2)CC1=O)C(=O)c1nccs1
(Q) N=C(N)NCCCC(NC(=O)CN1CCN(S(=O)(=O)c2ccc(-c3ccccn3)s2)CC1=O)C(=O)c1nccs1 (stereo not drawn)
stdin: Quick one: lower IC50, P or Q ? State your choice using its label.
stdout: P
(P: 417 nM, Q: 4000 nM)

(1) CC(=O)Nc1ccc(S(=O)(=O)N2CCN(CC(=O)NC(CCCNC(=N)N)C(=O)c3nccs3)C(=O)C2)cc1 (stereo not drawn)
(2) Cc1nsc(C)c1S(=O)(=O)N1CCN(CC(=O)NC(CCCNC(=N)N)C(=O)c2nccs2)C(=O)C1 (stereo not drawn)
(3) N=C(N)NCCCC(NC(=O)CN1CCN(S(=O)(=O)c2ccc(Cl)c(Cl)c2)CC1=O)C(=O)c1nccs1 (stereo not drawn)
stdin: // ascending sort on recorded IC50 Please respond by ranking the labels in the order requested.
stdout: 2, 3, 1

(a) CC(=O)Nc1nc(C)c(S(=O)(=O)N2CCN(CC(=O)NC(CCCN=C(N)N)C(=O)c3nccs3)C(=O)C2)s1 (stereo not drawn)
(b) N=C(N)NCCCC(NC(=O)CN1CCN(S(=O)(=O)c2ccc(F)cc2)CC1=O)C(=O)c1nccs1 (stereo not drawn)
stdin: Which entry has a larger number for IC50, a or b ? State your choice using its label.
stdout: a
(a: 4000 nM, b: 751 nM)

Data origin: ChEMBL document CHEMBL1136598
